molecular target: Glutamate NMDA receptor; Grin1/Grin2c (Rattus norvegicus) (UniProt P35439+Q00961); assay: Agonist activity at recombinant rat GluN1/GluN2C NMDA receptor expressed in xenopus laevis oocytes by measuring maximum response by two-electrode voltage-clamp method relative to glycine; format: cell-based; conditions: filed as agonist
outcome-measure: Rmax (%)

# count of solved cases: 10
> print(dat)
                                  smiles.str  measured.result
 1  N[C@H](CNC(=O)c1ccc(-c2ccccc2F)s1)C(=O)O              410
 2  N[C@H](CNC(=O)c1ccc(-c2cccc(F)c2F)s1)C(=O)O              321
 3                                  NCC(=O)O              100
 4  N[C@H](CNC(=O)c1ccc(-c2ccccc2Br)s1)C(=O)O              156
 5                          N[C@H](CO)C(=O)O              116
 6  CCc1ccccc1-c1ccc(C(=O)NC[C@@H](N)C(=O)O)s1              234
 7   N[C@H](CNC(=O)c1ccc(-c2ccccc2)s1)C(=O)O              326
 8  COc1cccc(F)c1-c1ccc(C(=O)NC[C@@H](N)C(=O)O)s1              179
 9  N[C@H](CNC(=O)c1ccc(-c2ccccc2C(F)(F)F)s1)C(=O)O              158
10  N[C@H](CNC(=O)c1ccc(-c2cccc3ccccc23)s1)C(=O)O              116

a. Cc1cc(C(=O)NC[C@@H](N)C(=O)O)sc1-c1ccccc1Br
b. N[C@H](CNC(=O)c1ccc(-c2cccc(F)c2)s1)C(=O)O
c. N[C@H](CNC(=O)c1cc(Br)c(-c2ccccc2F)s1)C(=O)O
Prompt: Reorder: Rmax, max to min. // ordering of labels required in reply
Response: c, b, a
(c: 864%, b: 390%, a: 267%)

I. COc1ccccc1-c1ccc(C(=O)NC[C@@H](N)C(=O)O)s1
II. N[C@H](CNC(=O)c1cc(Br)c(-c2ccccc2Br)s1)C(=O)O
Prompt: In terms of reported Rmax, does I or II have the smaller number? Please reply using the label of the selected record.
Response: I
(I: 293%, II: 430%)

----------
molecular target: Glutamate NMDA receptor; Grin1/Grin2c (Rattus norvegicus, UniProt P35439+Q00961); assay: Inhibition of recombinant rat GluN1/GluN2C NMDA receptor expressed in xenopus laevis oocytes in presence of glycine and L-glutamate by two-electrode voltage-clamp method
outcome-measure: IC50 (nM)

P. CCc1ccccc1-c1ccc(C(=O)NC[C@@H](N)C(=O)O)o1
Q. N[C@H](CNC(=O)c1ccc(-c2ccccc2)s1)C(=O)O
Prompt: Given the two records P and Q , choose the one whose IC50 value is lower. Answer with the label corresponding to your selection.
Response: P

----------
test: Efflux ratio of apparent permeability across basolateral to apical over apical to basolateral side in dog MDR1-deficient MDCK cells expressing human MDR1 at 3 uM by LC-MS/MS analysis; format: ADME, cell-based, Canis lupus familiaris
outcome-measure: Ratio

Sample records with Ratio:
> print(dat)
                                 smiles.str  outcome.measure  measured.result
1  CCc1ccccc1-c1cccc2[nH]c(C(=O)NC[C@@H](N)C(=O)O)cc12            Ratio              9.2
2  COC(=O)c1ccccc1-c1c2ccc(=N)cc-2oc2cc(N)ccc12.Cl            Ratio              7.5
3  N[C@H](CNC(=O)c1ccc(-c2ccccc2Br)s1)C(=O)O            Ratio              1.6
4  N[C@H](CNC(=O)c1cc(Br)c(-c2ccccc2F)s1)C(=O)O            Ratio              1.4

I. N[C@H](CNC(=O)c1cc(Br)c(-c2ccccc2Br)s1)C(=O)O
II. CC(C)OC(=O)[C@H](N)CNC(=O)c1ccc(-c2ccccc2Br)s1
Prompt: Hi! Which is lower in terms of Ratio, the first one I or the second one II ? Write down the label attached to your selection.
Response: II
